Assignment: determine reported pIC50 for the given compounds.
- Test system: NIH3T3/EGFR vIII cells
- assayName: 3D cell culture step (environment without adhesion scaffold), proliferation of NIH3T3/EGFR vIII cells
- Format: cell-based, mouse
- measurementParameters: Mus musculus, 72 h; NIH3T3/EGFR vIII cells, Ultra Low Attachment plate, 3 days, […]-GLO
Quick note: pIC50 values are minus log10 of concentrations in mol/L.

pIC50 measured on "Nc1ccc(Br)cc1-c1nc2ccccc2[nH]c1=O" = 7.92

pIC50 measured on "O=C(O)CCCC(=O)Nc1ccc(Br)cc1-c1nc2ccccc2[nH]c1=O" = 6.40

pIC50 measured on "Nc1ccc(I)cc1-c1nc2ccccc2[nH]c1=O" = 8.00

pIC50 measured on "Cc1ccc2nc(-c3cc(Br)ccc3N)c(=O)[nH]c2c1" = 7.00

pIC50 measured on "CC(=O)Nc1ccc(Br)cc1-c1nc2ccccc2[nH]c1=O" = 6.30

pIC50 measured on COc1cc2ncnc(Nc3cccc(Cl)c3)c2cc1OC [AG1478, reference compound] = 6.00

* * *

- Tested on: NIH3T3/EGFR vIII cells
- assayName: 3D cell culture step (environment without adhesion scaffold), proliferation of NIH3T3/EGFR vIII cells
- Assay type: cell-based, mouse
- measurementParameters: Mus musculus, 72 h; NIH3T3/EGFR vIII cells, Ultra Low Attachment plate, 3 days, […]-GLO
quantityKind: pIC50
Quick note: pIC50 values are minus log10 of concentrations in mol/L.

pIC50 measured on "Nc1ccc(Cl)cc1-c1nc2ccccc2[nH]c1=O" = 7.85

pIC50 measured on "Cc1ccc(N)c(-c2nc3ccccc3[nH]c2=O)c1" = 6.30

pIC50 measured on "Nc1ccc(F)cc1-c1nc2ccccc2[nH]c1=O" = 6.47

pIC50 measured on "CCOC(=O)Cn1c(=O)c(-c2cc(Br)ccc2N)nc2ccccc21" = 5.00
